MEASUREMENT_TARGET: α-glucosidase (Saccharomyces cerevisiae)
Construct: purchased Sigma-Aldrich
Sequence (P53341 whole entry): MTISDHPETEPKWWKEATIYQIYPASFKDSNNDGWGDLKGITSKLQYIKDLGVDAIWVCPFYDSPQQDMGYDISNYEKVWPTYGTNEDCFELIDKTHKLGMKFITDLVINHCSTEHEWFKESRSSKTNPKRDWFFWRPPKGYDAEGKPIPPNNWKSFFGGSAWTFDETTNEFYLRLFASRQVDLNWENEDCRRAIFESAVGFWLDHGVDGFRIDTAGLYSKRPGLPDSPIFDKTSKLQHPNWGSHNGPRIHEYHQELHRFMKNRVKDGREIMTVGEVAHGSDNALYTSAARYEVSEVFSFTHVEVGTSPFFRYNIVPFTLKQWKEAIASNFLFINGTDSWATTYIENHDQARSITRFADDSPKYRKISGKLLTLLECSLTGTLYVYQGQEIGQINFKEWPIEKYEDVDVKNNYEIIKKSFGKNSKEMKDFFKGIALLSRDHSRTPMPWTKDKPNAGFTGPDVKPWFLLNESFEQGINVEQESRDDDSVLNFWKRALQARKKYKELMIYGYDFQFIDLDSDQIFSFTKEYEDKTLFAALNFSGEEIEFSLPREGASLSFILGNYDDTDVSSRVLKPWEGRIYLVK
EXPERIMENTAL_PROTOCOL: CD spectra, secondary structure contents of α-glucosidase
Format: binding
CONDITION_DETAILS: molar ratio [α-Glu]:[Comp.] 1:3
This section presents compounds with their documented β-Turn values.
Unit % implied. Number only.

• Cc1ccc2c(c1)-n1c(c(-c3ccccc3)c3cc(C)ccc3c1=O)C2=O = 19.30
• O=C1c2cc(Cl)ccc2-n2c1c(-c1ccccc1)c1ccccc1c2=O = 19.60
• O=C1c2ccccc2-n2c1c(-c1ccccc1)c1ccc(F)cc1c2=O = 19.30
• CN(C)c1ccc(-c2c3n(c(=O)c4ccccc24)-c2ccccc2C3=O)cc1 = 19.10

Could you now look at the following compound, please?
stdin: Give its β-Turn value. Item: O=C1c2ccccc2-n2c1c(-c1ccc3ccccc3c1)c1ccccc1c2=O
stdout: 20.10

----------
Reported IC50, α-glucosidase from Saccharomyces cerevisiae (Saccharomyces cerevisiae, UniProt P53341).
Enter your answer as a number in µM; do not include the unit.

* Cc1ccc2c(=O)n3c(c(-c4ccccc4)c2c1)C(=O)c1cc(F)ccc1-3 | 11.9

stdin: Quick check: IC50 of O=C1c2cc(F)ccc2-n2c1c(-c1ccccc1)c1ccccc1c2=O ?
stdout: 10.1

stdin: Recorded IC50 for O=C1c2ccccc2-n2c1c(-c1ccccc1Cl)c1ccccc1c2=O , please?
stdout: 12.2
